EXPERIMENTAL_TARGET: S1P1 (Homo sapiens)
Sequence (P21453 whole entry): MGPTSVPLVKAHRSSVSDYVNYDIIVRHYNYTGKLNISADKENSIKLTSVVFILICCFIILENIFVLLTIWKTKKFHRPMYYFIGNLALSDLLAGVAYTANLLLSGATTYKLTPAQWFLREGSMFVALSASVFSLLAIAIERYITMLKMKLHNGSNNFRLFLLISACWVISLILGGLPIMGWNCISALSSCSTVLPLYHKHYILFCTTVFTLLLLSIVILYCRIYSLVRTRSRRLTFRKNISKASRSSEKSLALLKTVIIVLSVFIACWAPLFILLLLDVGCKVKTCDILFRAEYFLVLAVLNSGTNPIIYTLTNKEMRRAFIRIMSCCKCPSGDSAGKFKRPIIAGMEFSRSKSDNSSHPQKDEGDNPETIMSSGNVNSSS
Sequence (P32121 whole entry partner): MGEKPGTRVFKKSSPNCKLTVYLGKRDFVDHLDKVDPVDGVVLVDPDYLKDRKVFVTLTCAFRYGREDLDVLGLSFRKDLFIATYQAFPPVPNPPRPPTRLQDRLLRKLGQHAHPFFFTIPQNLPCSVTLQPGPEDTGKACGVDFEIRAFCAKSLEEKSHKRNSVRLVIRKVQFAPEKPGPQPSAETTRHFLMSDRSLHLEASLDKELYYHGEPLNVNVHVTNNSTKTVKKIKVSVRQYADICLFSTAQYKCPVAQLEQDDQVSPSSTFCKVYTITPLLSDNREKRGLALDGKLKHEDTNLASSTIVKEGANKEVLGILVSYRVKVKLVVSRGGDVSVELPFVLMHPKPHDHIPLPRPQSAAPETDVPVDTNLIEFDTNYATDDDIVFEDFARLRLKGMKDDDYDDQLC
METHOD: Tango β-arrestin Recruitment Assay in HEK293 cells (Assay 2a)
Format: cell-based
Set-up: linker with TEV protease (N1a) cleavage site (C); host or cells: HEK293, transiently transfected
EXPERIMENTAL_CONDITIONS: Tango β-arrestin Recruitment Assay, read-out: Assay 2a EC50
pEC50: −log10 of the molar value.
VALUE_KIND: pEC50

> print(dat)
                                    molecule  observed.result
 1  O=C(O)/C=C/c1cc(Cl)c(-c2noc(-c3cn4cc(C(F)(F)F)cc(Cl)c4n3)n2)cc1F           ≥ 7.00
 2  O=C(O)CCc1cc(Cl)c(-c2noc(-c3cn4cc([N+](=O)[O-])cc(Cl)c4n3)n2)cc1F     6.30 to 7.00
 3  NC(=O)CCc1ccc(-c2noc(-c3cn4cc(C(F)(F)F)cc(Cl)c4n3)n2)c(Cl)c1           ≥ 7.00
 4  C[C@H](COc1cc(Cl)c(-c2noc(-c3cn4cc(C(F)(F)F)cc(Br)c4n3)n2)cc1Cl)OP(=O)(O)O           ≥ 7.00
 5  NCC(O)COc1cc(Cl)c(-c2noc(-c3cn4cc(C(F)(F)F)cc(Cl)c4n3)n2)cc1F (stereo not shown)           ≥ 7.00
 6  Cc1cc(Cl)c2nc(-c3nc(-c4cc(F)c(CCC(=O)O)cc4Cl)no3)cn2c1           ≥ 7.00
 7  O=C(O)CCc1cc(Cl)c(-c2nnc(-c3cn4cc(C(F)(F)F)cc(Cl)c4n3)o2)cc1F           ≥ 7.00
 8  Cc1cc(CCC(=O)O)c(Cl)cc1-c1noc(-c2cn3cc(C(F)(F)F)cc(Cl)c3n2)n1           ≥ 7.00
 9  CS(=O)(=O)Cc1ccc(-c2noc(-c3cn4cc(C(F)(F)F)cc(Cl)c4n3)n2)c(Cl)c1     6.30 to 7.00
10  OCC(O)COc1cc(Cl)c(-c2nnc(-c3cn4cc(C(F)(F)F)cc(Cl)c4n3)s2)cc1F (stereo not shown)           ≥ 7.00
11  O=C(O)CCc1ccc(-c2nc(-c3cn4cc(C(F)(F)F)cc(Cl)c4n3)no2)cc1Cl     6.30 to 7.00
12  C[C@@H](O)COc1cc(Cl)c(-c2noc(-c3cn4cc(C(F)(F)F)cc(Cl)c4n3)n2)cc1Cl           ≥ 7.00
13  CC(Cc1cc(Cl)c(-c2noc(-c3cn4cc(C(F)(F)F)cc(Cl)c4n3)n2)cc1F)C(=O)O (stereo not shown)     6.30 to 7.00
14  OC[C@@H](O)COc1cc(Cl)c(-c2noc(-c3cn4cc(C(F)(F)F)cc(Br)c4n3)n2)cc1Cl           ≥ 7.00
15  Fc1ccccc1-c1noc(-c2cn3cc(C(F)(F)F)cc(Cl)c3n2)n1     6.00 to 6.30
16  OC(COc1cc(Cl)c(-c2noc(-c3cn4cc(C(F)(F)F)cc(Cl)c4n3)n2)cc1Cl)C(F)(F)F (stereo not shown)           ≥ 7.00

Data provenance is patent US20100160369A1.
